Reference source for all entries: PubChem BioAssay (NCI)

# Tested on: HOP-62 NSCLC
# assay_protocol: NCI tumour cell line growth inhibition, 48 h; in the data active means GI50 below about 0.43 µM; inactive means the rest
Choose the fitting class; nothing outside yes (active), no (inactive) is accepted.

For orientation, consider the following solved cases.
>>> answer_label("COC(=O)C1=C(C(=O)OC)SC(=C(Cl)C(=S)Nc2ccccc2O)S1")
"yes"
>>> answer_label("NCCN.NCCN.O=C([O-])CCl.O=C([O-])CCl.[Co+3].[O-][Cl+3]([O-])([O-])[O-]")
"no"
>>> answer_label("C=C1C(=O)O[C@H]2[C@H]1CCC(/C=N/c1ncc(Br)cc1N)=C\\CC[C@@]1(C)O[C@@H]21")
"no"
>>> answer_label("CCN1Cc2c(ccc(F)c2C#N)O[C@@H](C)CNC(=O)c2c(N)nn3ccc1nc23")
"no"

Let us examine a further case.
Which outcome did this test record for the compound COC(=O)CCC1CCC(c2cc(F)ccc2F)(S(=O)(=O)c2ccc(Cl)cc2)CC1 (stereo not given) ? no

----------
# Tested on: MALME-3M melanoma
# assay_protocol: NCI tumour cell line growth inhibition, 48 h
measure: GI50

// below: answered compounds
>>> obs_value("N#CC1=C(N)Oc2c(sc3c(Br)cccc23)C1c1ccc(Br)cc1 (stereo not drawn)")
"1.39 µM"
>>> obs_value("O=P(CCCCP(=O)(c1ccccc1)c1ccccc1)(c1ccccc1)c1ccccc1.[Cl][Sn]([Cl])([c]1ccccc1)[c]1ccccc1")
"1.41 µM"

Please examine the following record next.
Find the measured GI50 of CCN1C(=O)N(c2ccccc2)C2NC(=S)N(/N=C/C=C/c3ccccc3)C21 (stereo not drawn) and report it. 2.83 µM

----------
# System: 786-0 renal
# assay_protocol: NCI tumour cell line growth inhibition, 48 h; in the data active = GI50 below about 0.43 µM; inactive = the rest
Choose the fitting class; nothing outside 1.0 (active), 0.0 (inactive) is accepted.

>>> answer_label("CN(C)CC1C(=O)O[C@H]2[C@H]1CC/C(COC(=O)c1cc3ccccc3[nH]1)=C\\CC[C@@]1(C)O[C@@H]21 (stereo partly drawn)")
0.0
>>> answer_label("CNC(=O)CC1NC(=O)c2csc(n2)-c2ccc(-c3nc(C4=NC(C(=O)N5CCCC5C(N)=O)CO4)cs3)nc2-c2csc(n2)-c2csc(n2)C(C(C)C)NC(=O)CNC(=O)c2csc(n2)C(C(C)C)NC(=O)c2nc1sc2C (stereo not drawn)")
0.0
>>> answer_label("CCN1Cc2c(ccc(F)c2C#N)O[C@@H](C)CNC(=O)c2c(N)nn3ccc1nc23")
0.0
>>> answer_label("COc1ccc(NC(=O)COCCOCCNC[C@@H]2C(=O)O[C@H]3[C@H]2CC/C(COC(=O)OC/C2=C/CC[C@@]4(C)O[C@H]4[C@H]4OC(=O)[C@@H](CN(C)C)[C@@H]4CC2)=C\\CC[C@@]2(C)O[C@@H]32)c(O)c1C(N)=O")
0.0
>>> answer_label("COc1cc(/C=N/NC(=O)c2cnn3c2NC(c2ccccc2)C3)ccc1Oc1ccccc1 (stereo not drawn)")
0.0

Which outcome did this test record for the compound CC[C@@]1(OC(=O)CN)C(=O)OCc2c1cc1n(c2=O)Cc2cc3c(N)cccc3nc2-1 ? 1.0

Which outcome did this test record for the compound N#CC1=C(N)Oc2c(sc3c(Br)cccc23)C1c1ccc(Br)cc1 (stereo not drawn) ? 0.0

Which outcome did this test record for the compound COc1ccc(/C(=N\O)c2cc(C)c(OC)c(C)c2)cc1O ? 1.0

----------
Reported TGI values follow for various molecules
# Tested on: DU-145 prostate
# assay_protocol: NCI tumour cell line growth inhibition, 48 h

Find the measured TGI of CC(C)(C)C(=O)CP(=O)(O)O with DU-145 prostate as test system. > 100 µM

Find the measured TGI of CC1=C(C)C1[N+](=O)[O-] with DU-145 prostate as test system. > 100 µM

Find the measured TGI of CC1(O)CC(c2nc(-c3ccc4ccc(-c5ccccc5)nc4c3)c3c(N)nccn23)C1 (stereo unspecified) with DU-145 prostate as test system. > 86.8 µM

Find the measured TGI of S=c1ssc(Oc2ccccc2)c1Cl with DU-145 prostate as test system. 28.9 µM

Find the measured TGI of O=C(O)C1C(C(=O)O)C23CC2(C(=O)O)C2(C(=O)O)CCC3=C3CCCC312 (stereo unspecified) with DU-145 prostate as test system. 34.1 µM

----------
# Test system: HCC-2998 colon
# assay_protocol: NCI tumour cell line growth inhibition, 48 h
measure: TGI

Find the measured TGI of NC1=C(c2nc(-c3ccccc3)cs2)C(c2ccc(Br)cc2)c2c(c3ccccc3oc2=O)O1 (stereo unspecified) and report it. > 150 µg/mL

Find the measured TGI of C=CCN1C(=O)/C(=C/c2ccc(C)cc2)NC1=S and report it. > 100 µM

Find the measured TGI of Clc1ccc2nnnn2n1 and report it. 40.6 µM

Find the measured TGI of CC(C)(C)NCC(O)c1ccc(O)c(CO)n1 (stereo unspecified) and report it. > 100 µM

Find the measured TGI of Cc1ccc(/C=C2\CN(C)CC3C2=NN(c2ccccc2)C3c2ccc(C)cc2)cc1 (stereo unspecified) and report it. > 100 µM

Find the measured TGI of CCCCCCCCCCCCCCCCOCC(CP(=O)([O-])OCC[n+]1ccccc1)OC (stereo unspecified) and report it. 7.4 µM

----------
Reported TGI values follow for various molecules
# Tested on: HOP-62 NSCLC
# assay_protocol: NCI tumour cell line growth inhibition, 48 h
Hi! Could you send only the number? It should be in µM, unit omitted.

// below: answered molecules
>>> obs_value("O=C(c1ccccc1)C(Br)C(Br)c1cccc([N+](=O)[O-])c1 (centres undefined)")
14.4
>>> obs_value("COC(=O)c1cc2cc3c(c(O)c2c(=O)o1)O[C@@]1(Oc2c(O)c4c(c(O)c2[C@H]1OC1CC(OC)C(O)C(C)O1)C(=O)C=C(OC)C4=O)[C@H](O)C3 (some centres undefined)")
5.37
>>> obs_value("OC(CNCC1CCCO1)Cn1c2ccc(Cl)cc2c2cc(Cl)ccc21 (centres undefined)")
3.39
>>> obs_value("COc1cccc(OCCCN)c1-c1cc(Nc2cnc(C#N)cn2)n[nH]1")
13

Find the measured TGI of O=S(Nc1ccccc1)c1ccc(Cl)c(Cl)c1 (centres undefined) and report it. 79.1

Find the measured TGI of Cc1[nH]c(=O)n2c(C)nnc2c1C(=O)Nc1cc(Cl)cc(Cl)c1 and report it. 79.4

----------
Reported GI50 values follow for various molecules
# Test system: COLO 205 colon
# assay_protocol: NCI tumour cell line growth inhibition, 48 h

// below: answered molecules
>>> obs_value("Nc1nc(N)c2c(n1)NC(c1ccc(F)cc1)C1CCc3ccccc3C1=N2 (stereo not drawn)")
"1620 nM"
>>> obs_value("Oc1ccccc1C=Nc1nc(SCc2ccccc2)nc2[nH]ncc12")
"29100 nM"
>>> obs_value("Oc1[nH]c2c(Br)cccc2c1C1=Nc2ccccc2/C1=N/OCCN1CCCC1")
"524 nM"
>>> obs_value("NC1=C(c2nc(-c3ccccc3)cs2)C(c2ccc(Br)cc2)c2c(c3ccccc3oc2=O)O1 (stereo not drawn)")
"78.1 µg/mL"
>>> obs_value("Cc1cc(NCc2cc(Nc3ccnc4cc(Cl)ccc34)ccc2F)nc(N2CCN(C)CC2)n1")
"1720 nM"
>>> obs_value("COC(=O)C1CCCN1C(=O)[C@@H]1CCCN1C(=O)[C@H](Cc1c[nH]c2ccccc12)NC(=S)Nc1cc(C(F)(F)F)cc(C(F)(F)F)c1 (stereo partly drawn)")
"1720 nM"
>>> obs_value("COC(=O)CCC1CCC(c2cc(F)ccc2F)(S(=O)(=O)c2ccc(Cl)cc2)CC1 (stereo not drawn)")
"> 100000 nM"

Please examine the following record next.
Find the measured GI50 of CNCCNc1c2c(c(NCCNC)c3[nH]ccc13)C(=O)c1ccccc1C2=O and report it. 3320 nM

----------
Values of GI50 reported for SK-MEL-2 melanoma appear below.

// below: answered compounds
>>> obs_value("Nc1nc(N)c2c(n1)NC(c1ccc(F)cc1)C1CCc3ccccc3C1=N2 (stereo unspecified)")
"5.73 µM"
>>> obs_value("Cc1cc2[nH]c(=O)c3c4ccccc4cn3c2cc1C")
"18.1 µM"
>>> obs_value("Clc1ccc2nnnn2n1")
"2.88 µM"
>>> obs_value("Cc1ccc2c(c1)C(C)Cc1c(Cl)ncnc1N2C (stereo unspecified)")
"3.03 µM"
>>> obs_value("CC(C)COCC(CN(Cc1ccccc1)c1ccccc1)N1CCCC1 (stereo unspecified)")
"2.73 µM"
>>> obs_value("COC(=O)CCC1CCC(c2cc(F)ccc2F)(S(=O)(=O)c2ccc(Cl)cc2)CC1 (stereo unspecified)")
"62 µM"

Find the measured GI50 of O=C1C=CC[C@H](/C=C/c2ccccc2)O1 with SK-MEL-2 melanoma as test system. 6.57 µM

Find the measured GI50 of Oc1[nH]c2c(Br)cccc2c1C1=Nc2ccccc2/C1=N/OCCN1CCCC1 with SK-MEL-2 melanoma as test system. 2.21 µM

Find the measured GI50 of Oc1ccccc1C=Nc1nc(SCc2ccccc2)nc2[nH]ncc12 with SK-MEL-2 melanoma as test system. > 100 µM

Find the measured GI50 of FC(F)(F)c1ccc(C#Cc2ccccc2C#Cc2ccccc2)cc1 with SK-MEL-2 melanoma as test system. 29.2 µM

Find the measured GI50 of O=C(Nc1ccc2[nH]c(=S)sc2c1)Nc1ccccc1F with SK-MEL-2 melanoma as test system. 26.7 µM
